- Test system: Staphylococcus aureus
- PROTOCOL SUMMARY: Antibacterial activity against Staphylococcus aureus ATCC 43300 assessed as inhibition of bacterial growth measured after 18 hrs by microplate reader
- Type: functional
- CONDITION PARAMETERS: read-out: MIC100
Hi! Just check whether MIC is below 8 µg/mL. Below gives TRUE, equal or above gives FALSE.

Solved cases below.
1) Cc1cc(O)c(C(C)C)cc1Br = FALSE
2) COc1cccc(-c2cc(C(C)C)c(O)cc2C)c1 = FALSE

Answer whether the compound Cc1cc(O)c(C(C)C)cc1-c1ccccc1 has MIC strictly less than 8 µg/mL
FALSE

Answer whether the compound Cc1cc(O)c(C(C)C)cc1-c1cccc(Cl)c1 has MIC strictly less than 8 µg/mL
TRUE

Answer whether the compound Cc1ccc(C(C)C)c(O)c1 [THYMOL] has MIC strictly less than 8 µg/mL
FALSE

Ref: ChEMBL document CHEMBL5512654
